- experimental-target: EGFR-L858R/T790M/C797S (Homo sapiens, UniProt P00533, C797S/L858R/T790M)
- Construct: expressed in transfected cells; host or cells: H1975-clone #25 (lentiviral over-expression, endogenous EGFR knocked out)
- Sequence (P00533 25-1210 T790M/C797S/L858R): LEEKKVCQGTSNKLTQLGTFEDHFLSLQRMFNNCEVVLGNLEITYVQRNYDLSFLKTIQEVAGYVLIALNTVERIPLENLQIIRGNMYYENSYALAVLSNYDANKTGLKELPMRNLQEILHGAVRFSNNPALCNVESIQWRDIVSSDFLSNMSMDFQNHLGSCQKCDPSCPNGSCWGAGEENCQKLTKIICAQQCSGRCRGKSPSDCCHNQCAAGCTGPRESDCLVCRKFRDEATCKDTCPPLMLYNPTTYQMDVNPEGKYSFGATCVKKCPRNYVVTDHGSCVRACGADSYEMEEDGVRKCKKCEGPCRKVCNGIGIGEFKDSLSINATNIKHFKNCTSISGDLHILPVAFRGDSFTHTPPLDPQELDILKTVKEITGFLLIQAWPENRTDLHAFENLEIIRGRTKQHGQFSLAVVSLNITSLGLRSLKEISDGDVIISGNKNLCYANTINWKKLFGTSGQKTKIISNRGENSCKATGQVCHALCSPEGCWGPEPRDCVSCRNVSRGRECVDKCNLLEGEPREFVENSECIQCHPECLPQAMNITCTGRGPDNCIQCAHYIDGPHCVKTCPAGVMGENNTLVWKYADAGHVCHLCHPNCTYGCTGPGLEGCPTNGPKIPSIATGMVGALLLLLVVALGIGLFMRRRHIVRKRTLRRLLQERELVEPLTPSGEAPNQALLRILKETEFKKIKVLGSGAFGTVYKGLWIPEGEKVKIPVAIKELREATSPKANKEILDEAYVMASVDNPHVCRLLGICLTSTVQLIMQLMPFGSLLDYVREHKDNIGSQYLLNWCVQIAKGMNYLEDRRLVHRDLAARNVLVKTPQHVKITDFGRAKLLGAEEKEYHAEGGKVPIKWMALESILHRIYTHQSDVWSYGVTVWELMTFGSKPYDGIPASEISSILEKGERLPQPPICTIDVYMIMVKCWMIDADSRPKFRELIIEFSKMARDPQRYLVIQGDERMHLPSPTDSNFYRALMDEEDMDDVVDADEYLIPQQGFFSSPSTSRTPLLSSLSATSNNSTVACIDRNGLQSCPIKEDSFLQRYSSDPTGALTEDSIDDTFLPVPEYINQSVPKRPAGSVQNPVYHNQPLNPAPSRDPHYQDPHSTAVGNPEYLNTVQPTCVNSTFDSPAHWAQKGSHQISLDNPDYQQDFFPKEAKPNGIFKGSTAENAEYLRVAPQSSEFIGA
- test-method-notes: EGFR degradation HTRF assay in H1975-clone #25 cells
- Type: cell-based
- experimental-context: NCI-H1975, H1975-clone #25 (L858R/T790M/C797S) cells, 16 h treatment, maximum percentage of inhibition (degradation), read-out: Dmax (%) H1975 # 25-LTC
Recorded Dmax, one value per entry.
The response must be a number in % with no trailing unit.

These solved cases illustrate the format of a correct answer.
{"columns": ["molecule", "property-name", "result-units", "test-result"],
 "data": [
  ["CCc1ccc2c(P(C)(C)=O)c(Nc3nc(Nc4cc(CC)c(N5CCC(N6CCC(N7CC(c8cc(F)c([C@H]9CCC(=O)NC9=O)c(F)c8)C7)CC6)CC5)cc4OC)ncc3Br)ccc2n1 (single isomer, unassigned)", "Dmax", "%", 89],
  ["CCc1ccc2c(P(C)(C)=O)c(Nc3nc(Nc4cc(CC)c(N5CCC(N6CC7(CCN(c8cc(F)c([C@H]9CCC(=O)NC9=O)c(F)c8)CC7)C6)CC5)cc4OC)ncc3Br)ccc2n1", "Dmax", "%", 91]
]}

query: Suppose we examine the molecule COc1cc(N2CCC3(CCN(CC4CCN(c5ccc6c(c5)CN(C5CCC(=O)NC5=O)C6=O)CC4)CC3)CC2)c(C)cc1Nc1ncc(Br)c(Nc2ccc3nc(C)ccc3c2P(C)(C)=O)n1 (stereo not drawn) ; what Dmax value has been reported?
result: 82

----------
- Tested on: EGFR-Del19/T790M/C797S
- test-method-notes: EGFR degradation HTRF assay in H1975-clone #28 cells
- Format: cell-based
- experimental-context: H1975-clone #28 (Del19/T790M/C797S) cells, 16 h treatment, maximum percentage of inhibition (degradation)
Recorded Dmax (%) H1975 # 28 DTC, one value per entry.
The response must be a number in % with no trailing unit.

{"columns": ["molecule", "property-name", "test-result"],
 "data": [
  ["CCc1ccc2c(P(C)(C)=O)c(Nc3nc(Nc4cc(CC)c(N5CCC(N6CCC(N7CC(c8cc(F)c([C@H]9CCC(=O)NC9=O)c(F)c8)C7)CC6)CC5)cc4OC)ncc3Br)ccc2n1 (single isomer, unassigned)", "Dmax (%) H1975 # 28 DTC", 87]
]}

query: Suppose we examine the molecule CCc1ncc2c(P(C)(C)=O)c(Nc3nc(Nc4cc(CC)c(N5CCC(N6CC7(CCN(c8cc(F)c([C@H]9CCC(=O)NC9=O)c(F)c8)CC7)C6)CC5)cc4OC)ncc3Br)ccc2n1 (single isomer, unassigned) ; what Dmax (%) H1975 # 28 DTC value has been reported?
result: 90

query: Suppose we examine the molecule CCc1ccc2c(P(C)(C)=O)c(Nc3nc(Nc4cc(CC)c(N5CCC(N6CCC(N7CCN(c8cc(F)c([C@H]9CCC(=O)NC9=O)c(F)c8)CC7)CC6)CC5)cc4OC)ncc3Br)ccc2n1 (single isomer, unassigned) ; what Dmax (%) H1975 # 28 DTC value has been reported?
result: 88

query: Suppose we examine the molecule CCc1cc(Nc2ncc(Br)c(Nc3ccc4nc(C)c(F)cc4c3P(C)(C)=O)n2)c(OC)cc1N1CCC2(CCN(CCCc3cccc4c3n(C)c(=O)n4C3CCC(=O)NC3=O)CC2)CC1 (centres unmarked) ; what Dmax (%) H1975 # 28 DTC value has been reported?
result: 80

query: Suppose we examine the molecule CCc1ncc2c(P(C)(C)=O)c(Nc3nc(Nc4cc(CC)c(N5CCC(N6CCN(CC7CCN(c8ccc9c(c8)CN(C8CCC(=O)NC8=O)C9=O)CC7)CC6)CC5)cc4OC)ncc3Br)ccc2n1 (centres unmarked) ; what Dmax (%) H1975 # 28 DTC value has been reported?
result: 79

----------
- experimental-target: EGFR-L858R/T790M/C797S (Homo sapiens, UniProt P00533, C797S/L858R/T790M)
- Construct: expressed in transfected cells; host or cells: H1975-clone #25 (lentiviral over-expression, endogenous EGFR knocked out)
- test-method-notes: EGFR degradation HTRF assay in H1975-clone #25 cells
- Type: cell-based
- experimental-context: H1975-clone #25 (L858R/T790M/C797S) cells, 16 h treatment, IC50 (DC50), read-out: DC50(nM) H1975 # 25-LTC
One threshold, 1 nM, splits the recorded DC50 values: lower ones are Satisfied, equal or higher ones are Not satisfied.

Here's what some known entries look like.
{"columns": ["compound", "class-assignment"],
 "data": [
  ["CCc1cc(Nc2ncc(Br)c(Nc3ccc4nc(C)c(F)cc4c3P(C)(C)=O)n2)c(OC)cc1N1CCC2(CCN(CC3CCN(c4ccc5c(c4)CN(C4CCC(=O)NC4=O)C5=O)CC3)CC2)CC1 (stereo not shown)", "Not satisfied"],
  ["CCc1cc(Nc2ncc(Br)c(Nc3ccc4nc(C)c(F)cc4c3P(C)(C)=O)n2)c(OC)cc1N1CCC2(CCN(CC3CCN(c4cc5c(cc4F)C(=O)N(C4CCC(=O)NC4=O)C5=O)CC3)CC2)CC1 (stereo not shown)", "Not satisfied"],
  ["CCc1cc(Nc2ncc(Br)c(Nc3ccc4nc(C)c(F)cc4c3P(C)(C)=O)n2)c(OC)cc1N1CCC(N2CCN(C3CN(c4cccc5c4n(C)c(=O)n5C4CCC(=O)NC4=O)C3)CC2)CC1 (stereo not shown)", "Satisfied"],
  ["CCc1cc(Nc2ncc(Br)c(Nc3ccc4nc(C)c(F)cc4c3P(C)(C)=O)n2)c(OC)cc1N1CCC(N2CC3(CN(c4cc(F)c([C@H]5CCC(=O)NC5=O)c(F)c4)C3)C2)CC1", "Not satisfied"],
  ["CCc1ncc2c(P(C)(C)=O)c(Nc3nc(Nc4cc(CC)c(N5CCC(N6CC7(CCN(c8cc(F)c([C@H]9CCC(=O)NC9=O)c(F)c8)CC7)C6)CC5)cc4OC)ncc3Br)ccc2n1 (single isomer, unassigned)", "Not satisfied"],
  ["CCc1cc(Nc2ncc(Br)c(Nc3ccc4nc(C)c(F)cc4c3P(C)(C)=O)n2)c(OC)cc1N1CCC(N2CC(N3CCN(c4cc(F)c([C@H]5CCC(=O)NC5=O)c(F)c4)CC3)C2)CC1 (single isomer, unassigned)", "Not satisfied"],
  ["CCc1ccc2c(P(C)(C)=O)c(Nc3nc(Nc4cc(CC)c(N5CCC(N6CC7(CCN(c8cc(F)c([C@H]9CCC(=O)NC9=O)c(F)c8)CC7)C6)CC5)cc4OC)ncc3Br)ccc2n1", "Not satisfied"],
  ["CCc1ncc2c(P(C)(C)=O)c(Nc3nc(Nc4cc(CC)c(N5CCC(N6CCN(C7CN(c8cccc9c8n(C)c(=O)n9C8CCC(=O)NC8=O)C7)CC6)CC5)cc4OC)ncc3Br)ccc2n1 (stereo not shown)", "Satisfied"]
]}

query: Please state whether DC50 is below 1 nM for CCOc1cc(N2CCC(N3CC(N4CCC(c5cc(F)c([C@H]6CCC(=O)NC6=O)c(F)c5)CC4)C3)CC2)c(CC)cc1Nc1ncc(Cl)c(Nc2ccc3nc(C)c(F)cc3c2P(C)(C)=O)n1
result: Not satisfied

query: Please state whether DC50 is below 1 nM for CCOc1cc(N2CCC(N3CC4(CCN(c5cc(F)c([C@H]6CCC(=O)NC6=O)c(F)c5)CC4)C3)CC2)c(CC)cc1Nc1ncc(Cl)c(Nc2ccc3nc(C)c(F)cc3c2P(C)(C)=O)n1
result: Not satisfied

----------
- experimental-target: EGFR-L858R/T790M/C797S (Homo sapiens, UniProt P00533, C797S/L858R/T790M)
- Construct: expressed in transfected cells; host or cells: H1975-clone #25 (lentiviral over-expression, endogenous EGFR knocked out)
- test-method-notes: EGFR degradation HTRF assay in H1975-clone #25 cells
- Format: cell-based
- experimental-context: H1975-clone #25 (L858R/T790M/C797S) cells, 16 h treatment, IC50 (DC50), read-out: DC50(nM) H1975 # 25-LTC
- Experimental: H1975-clone #28(Del19/T790M/C797S) and H1975-clone #25(L858R/T790M/C797S). EGFR-Del19/T790M/C797S and EGFR-L858R/T790M/C797S were stably expressed in H1975 cell lines by lentivirus-mediated over-expression, respectively. The EGFR over-expressed cells then underwent knockout, in which the EGFR targeting sgRNA was designed to only target the endogenous EGFR copies and preserve the exogenous EGFR copies. […] The inhibition (degradation) percentage of the compound was calculated by the following equation: […]
Recorded DC50, one value per entry.
The response must be a number in nM with no trailing unit.

These solved cases illustrate the format of a correct answer.
{"columns": ["compound", "DC50 / nM"],
 "data": [
  ["COc1cc(N2CCC3(CC2)CCN(C2CCN(c4cc(F)c([C@H]5CCC(=O)NC5=O)c(F)c4)CC2)CC3)c(C)cc1Nc1ncc(Br)c(Nc2ccc3nc(C)ncc3c2P(C)(C)=O)n1 [Example 66]", 6.9],
  ["COc1cc(N2CCC3(CC2)CCN(C2CCN(c4cc(F)c([C@H]5CCC(=O)NC5=O)c(F)c4)CC2)CC3)c(C)cc1Nc1ncc(Br)c(Nc2ccc3nc(C)c(F)cc3c2P(C)(C)=O)n1 [Example 37]", 1.4],
  ["CCc1ccc2c(P(C)(C)=O)c(Nc3nc(Nc4cc(CC)c(N5CCC(N6CCN(C7CN(c8cccc9c8n(C)c(=O)n9C8CCC(=O)NC8=O)C7)CC6)CC5)cc4OC)ncc3Br)ccc2n1 (stereo not shown) [Example 21]", 1.8],
  ["CCc1ncc2c(P(C)(C)=O)c(Nc3nc(Nc4cc(CC)c(N5CCC(N6CCC7(CCN(c8cc(F)c([C@H]9CCC(=O)NC9=O)c(F)c8)CC7)CC6)CC5)cc4OC)ncc3Br)ccc2n1 (single isomer, unassigned) [Example 4]", 2.5],
  ["CCc1cc(Nc2ncc(Cl)c(Nc3ccc4nc(C)c(F)cc4c3P(C)(C)=O)n2)c(OC)cc1N1CCC2(CCN(CCc3cc(F)c([C@H]4CCC(=O)NC4=O)c(F)c3)CC2)CC1 [Example 41]", 4.2]
]}

query: Suppose we examine the compound CCc1ncc2c(P(C)(C)=O)c(Nc3nc(Nc4cc(CC)c(N5CCC(N6CC7(CCN(c8cccc9c8n(C)c(=O)n9C8CCC(=O)NC8=O)CC7)C6)CC5)cc4OC)ncc3Br)ccc2n1 (stereo not shown) [Example 31] ; what DC50 value has been reported?
result: 0.6

query: Suppose we examine the compound CCc1cc(Nc2ncc(Br)c(Nc3ccc4nc(C)c(F)cc4c3P(C)(C)=O)n2)c(OC)cc1N1CCC2(CCN(CC3CCN(c4ccc5c(c4)C(=O)N(C4CCC(=O)NC4=O)C5=O)CC3)CC2)CC1 (stereo not shown) [Example 46] ; what DC50 value has been reported?
result: 5.4

query: Suppose we examine the compound CCOc1cc(N2CCC(N3CCC4(CC3)CN(c3cc(F)c([C@H]5CCC(=O)NC5=O)c(F)c3)C4)CC2)c(CC)cc1Nc1ncc(Cl)c(Nc2ccc3nc(C)c(F)cc3c2P(C)(C)=O)n1 [Example 57] ; what DC50 value has been reported?
result: 2.7

query: Suppose we examine the compound CCc1ccc2c(P(C)(C)=O)c(Nc3nc(Nc4cc(C)c(N5CCC6(CCN(CCc7cccc8c7n(C)c(=O)n8C7CCC(=O)NC7=O)CC6)CC5)cc4OC)ncc3Br)ccc2n1 (stereo not shown) [Example 68] ; what DC50 value has been reported?
result: 3.1

query: Suppose we examine the compound CCc1ncc2c(P(C)(C)=O)c(Nc3nc(Nc4cc(CC)c(N5CCC6(CC5)CCN(C5CCN(c7cc(F)c([C@H]8CCC(=O)NC8=O)c(F)c7)CC5)CC6)cc4OC)ncc3Br)ccc2n1 [Example 3] ; what DC50 value has been reported?
result: 2.8

query: Suppose we examine the compound CCOc1cc(N2CCC(N3CC4(CCN(c5cccc6c5n(C)c(=O)n6C5CCC(=O)NC5=O)CC4)C3)CC2)c(CC)cc1Nc1ncc(Cl)c(Nc2ccc3nc(C)c(F)cc3c2P(C)(C)=O)n1 (stereo not shown) [Example 32] ; what DC50 value has been reported?
result: 1.3

query: Suppose we examine the compound CCc1ncc2c(P(C)(C)=O)c(Nc3nc(Nc4cc(CC)c(N5CCC(N6CC(N7CCC(c8cc(F)c([C@H]9CCC(=O)NC9=O)c(F)c8)CC7)C6)CC5)cc4OC)ncc3Br)ccc2n1 [Example 13] ; what DC50 value has been reported?
result: 1.8

query: Suppose we examine the compound CCc1cc(Nc2ncc(Br)c(Nc3ccc4nc(C)c(F)cc4c3P(C)(C)=O)n2)c(OC)cc1N1CCC2(CCN(CC3CN(c4cc(F)c([C@H]5CCC(=O)NC5=O)c(F)c4)C3)CC2)CC1 [Example 39] ; what DC50 value has been reported?
result: 5.6

query: Suppose we examine the compound CCc1cc(Nc2ncc(Br)c(Nc3ccc4nc(C)c(F)cc4c3P(C)(C)=O)n2)c(OC)cc1N1CCC2(CCN(CC3CN(c4cccc5c4CN(C4CCC(=O)NC4=O)C5=O)C3)CC2)CC1 (stereo not shown) [Example 33] ; what DC50 value has been reported?
result: 1.5

query: Suppose we examine the compound CCc1ncc2c(P(C)(C)=O)c(Nc3nc(Nc4cc(CC)c(N5CCC(N6CCN([C@H]7CCN(c8cc(F)c([C@H]9CCC(=O)NC9=O)c(F)c8)C7)CC6)CC5)cc4OC)ncc3Br)ccc2n1 (single isomer, unassigned) [Example 9] ; what DC50 value has been reported?
result: 3.8

query: Suppose we examine the compound CCc1cc(Nc2ncc(Br)c(Nc3ccc4nc(C)c(F)cc4c3P(C)(C)=O)n2)c(OC)cc1N1CCC2(CCN(CCN(C)c3cc(F)c([C@H]4CCC(=O)NC4=O)c(F)c3)CC2)CC1 [Example 44] ; what DC50 value has been reported?
result: 4.2

query: Suppose we examine the compound CCc1cc(Nc2ncc(Br)c(Nc3ccc4nc(C)c(F)cc4c3P(C)(C)=O)n2)c(OC)cc1N1CCC2(CC1)CCN(C1CCN(c3cc(F)c([C@H]4CCC(=O)NC4=O)c(F)c3)CC1)CC2 [Example 1] ; what DC50 value has been reported?
result: 3.4

query: Suppose we examine the compound CCc1cc(Nc2ncc(Cl)c(Nc3ccc4nc(C)c(F)cc4c3P(C)(C)=O)n2)c(OC)cc1N1CCC(N2CCC(N3CCN(c4cc(F)c([C@H]5CCC(=O)NC5=O)c(F)c4)CC3)CC2)CC1 [Example 12] ; what DC50 value has been reported?
result: 2.5

query: Suppose we examine the compound CCc1ncc2c(P(C)(C)=O)c(Nc3nc(Nc4cc(CC)c(N5CCC(N6CCN(CC7CCN(c8ccc9c(c8)CN(C8CCC(=O)NC8=O)C9=O)CC7)CC6)CC5)cc4OC)ncc3Br)ccc2n1 (stereo not shown) [Example 35] ; what DC50 value has been reported?
result: 1.3
